Origin of values: PubChem BioAssay (NCATS)

Each entry below carries its reported max response.
test: qHTS Assay for Lipid Storage Modulators (AID 1519); settings: Drosophila S3 cells, BODIPY lipid droplet/cell ratio, laser cytometry; measured here: lipid channel max response; cells loaded with oleic acid
Results filed as inconclusive are left out. Residues, ends and D or L forms follow the SMILES beside them.
Give the figure together with its unit, number first.

C[C@@H](CCc1ccc(O)cc1)NCCc1ccc(O)c(O)c1    2.79%
c1ncc(CC2CCNCC2)[nH]1    -15.8%
N[C@H]1CCN(O)C1=O    -12.7%

The molecule listed as Cc1ccccc1N=C(N)Nc1ccccc1C shows max response equal to 7.24%

Looking up C[C@H](C[C@H](N)C(=O)O)C(=O)O , I see its max response listed as -13.5%

According to the records, this molecule C/C=C1\C(=O)CC2C3CCC4=CC(=O)CC[C@]4(C)C3CC[C@]12C (some centres not stated) displays max response of 74.6%

Form: molecule = O=C1C(c2ccccn2)=[N+]([O-])c2ccccc21 ; max response = 22.9%

Just so you know, measured max response for CC(=O)NCC(=O)N[C@H](CCC(=O)O)C(=O)O (HELM PEPTIDE1{[ac].G.[dE]}$$$$V2.0) came out at 9.84%

What the record says about NCCC(=O)O : max response is -21.9%

Field max response (entry COc1ccccc1N1CCN(C[C@@H](O)COc2cccc3ccccc23)CC1 ) reads -0.579%

Looking up NC1(C(=O)O)CCC1 , I see its max response listed as -13.7%

Consider CCCCCCCCCCCC(=O)O[C@H](CC(=O)O)C[N+](C)(C)C . Its measured max response is -11.1%

The reported value for C[C@]12CC3CC(N)(C1)C[C@@](C)(C3)C2 in terms of max response is -26.5%

# molecule S=C(Nc1ccccc1)Nc1nccs1 ; its max response = -14.9%

Notebook: O=C(O)[C@H]1CCCNC1 , max response read as -1.72%

// CCCCCCCCCCCCCCCC(=O)NC(C)C : max response value = -16.6%

max response for Nc1c(S(=O)(=O)O)cc(Nc2ccc(Nc3nc(Cl)nc(Nc4ccc(S(=O)(=O)O)cc4)n3)c(S(=O)(=O)O)c2)c2c1C(=O)c1ccccc1C2=O is -16.5%

Form field max response, entry C=CC1=C(C)C2=NC1=CC1=NC(=CC3=NC(=CC4=NC(=C2)C(C)=C4CCC(=O)O)C(CCC(=O)O)=C3C)C(C=C)=C1C.[Zn] : -12%

The measured max response associated with NC[C@](O)(CS(=O)(=O)O)c1ccc(Cl)cc1 reads 9.5%
